Test system: A549/ATCC NSCLC
Test: NCI-60 one-dose screen, 48 h
Details: 10 µM unless noted
The panel holds about 83,000 compounds, 20% with a hit somewhere; the sample as a whole holds those more often. The source made the active and inactive calls. The calls were made as follows: active = growth percent below 10; inactive = the rest.
Labels: 1 (yes) (active), 0 (no) (inactive)

Compound	Tested target	Qualitative label
CCOC(=O)C1C(C=C(C)C)C1(C)C (centres undefined)	A549/ATCC NSCLC	0 (no)
Nc1c(Cl)c(Cl)nc(C(=O)O)c1Cl	A549/ATCC NSCLC	0 (no)
C[C@@]12CCCc3coc(c31)C(=O)c1cc3c(cc12)C(=O)C1=C(NCCS1(=O)=O)C3=O	A549/ATCC NSCLC	1 (yes)
CC[C@H](C)[C@H](NC(=O)c1cnccn1)C(=O)N(C)[C@H](C[C@@H](OC(C)=O)c1nc(C(=O)N[C@@H](Cc2ccccc2)C[C@H](C)C(=O)OC)cs1)C(C)C	A549/ATCC NSCLC	0 (no)
C[C@@H]1C/C=C\C(=O)O[C@H](/C=C/C#C/C=C/C(C)(C)[C@@H](O)c2cccc(O)c2Br)[C@@H](C)/C=C/[C@H](C)C[C@H](OC(N)=O)C1	A549/ATCC NSCLC	0 (no)
CN1CCC2(CC1)C(C#N)C(=O)NC(=O)C2C#N (centres undefined)	A549/ATCC NSCLC	0 (no)
C/C=C(/C)C(=O)O[C@H]1CC[C@@]2(C)[C@@H]3CC[C@H]4[C@]5(O)C[C@H](O)[C@@]6(O)[C@@H](CN7C[C@@H](C)CC[C@H]7[C@@]6(C)O)[C@]5(O)C[C@@]42O[C@@]13O	A549/ATCC NSCLC	0 (no)
O=[N+]([O-])c1ccc(OCc2ccc(S(=O)(=O)F)c(Cl)c2)c(Cl)c1	A549/ATCC NSCLC	0 (no)
C[N+]1(CC#CC[N+]2(C)CCCC2)CCCC1	A549/ATCC NSCLC	0 (no)

====

Test system: PC-3 prostate
Assay: NCI-60 one-dose screen, 48 h
Conditions: 10 µM unless noted
Procedure: Growth inhibition of the PC-3 human tumor cell line is measured as a screen for anti-cancer activity. Cells are grown in 96 well plates and exposed to the test compound for 48 hours. Compounds are tested at a single concentration, which is 10^-5 M for most compounds. The reported endpoint is percent growth (GI% or GIPRCNT), where numbers from 0 - 100% represent growth inhibition, and numbers from -100% - 0 represent cell death. For example, a value of 40 represents 60% growth inhibition. […]
This is part of a sample that, as a whole, favours compounds with a hit. Of some 83,000 tested, about 20% had one in any assay. The source made the active and inactive calls. The calls were made as follows: active = growth percent below 10; inactive = the rest.
Classes used: YES = active, NO = inactive

Compound	Qualitative label
O=[N+]([O-])c1ccc2scc3c4ccccc4nc-3c2c1	YES
O=C(NC(Cl)=C(Cl)Cl)P(=O)(c1ccccc1)c1ccccc1	NO
Cc1cc(N)ccc1N	NO
Cc1nc2ccccc2c(=O)n1-c1ccccc1F	NO
Cc1cc(NC(=O)NCCCOc2ccc(N3C(N)=NC(N)=NC3(C)C)cc2Cl)ccc1S(=O)(=O)F	NO
CCCn1cc2c3c(cccc31)[C@H]1C[C@@H](C)CN(C)[C@@H]1C2	NO
CCCCCCCCCCCCCCCCCC1OCC(COC(=O)O[C@@H](C(=O)O[C@H]2C[C@@]3(O)[C@@H](OC(=O)c4ccccc4)[C@@H]4[C@]5(OC(C)=O)CO[C@@H]5C[C@H](O)[C@@]4(C)C(=O)[C@H](OC(C)=O)C(=C2C)C3(C)C)[C@@H](NC(=O)c2ccccc2)c2ccccc2)O1 (stereo not given in full)	NO
C[C@]12CCc3sc(Nc4ccc(OC(F)(F)F)cc4)nc3C1=CC[C@@H]1[C@@H]2CC[C@]2(C)C(=O)CC[C@@H]12	NO
O=C(NC1=NCC[Se]1)c1ccccc1O	NO
C[Se]/C=C1/C(=O)N(c2c(Cl)cccc2Cl)c2ccccc21	NO

====

System: SK-OV-3 ovarian
Assay: NCI-60 one-dose screen, 48 h (100 = growth as untreated, 0 = no growth, -100 = all killed)
Conditions: 10 µM unless noted
Procedure: Growth inhibition of the SK-OV-3 human tumor cell line is measured as a screen for anti-cancer activity. Cells are grown in 96 well plates and exposed to the test compound for 48 hours. Compounds are tested at a single concentration, which is 10^-5 M for most compounds. The reported endpoint is percent growth (GI% or GIPRCNT), where numbers from 0 - 100% represent growth inhibition, and numbers from -100% - 0 represent cell death. For example, a value of 40 represents 60% growth inhibition. […]
About 83,000 compounds went through this panel and 20% of them were active in at least one assay; those are over-represented in the sample as a whole.
# growth annotations
Experimental endpoint: growth (%)

> print(dat)
                                    compound  reported.measurement
 1                      c1ccc(CCN2CCCCC2)nc1                  99.2
 2  COc1ccc(O)c2c(=O)c3c(OC)cc4c(c3oc12)[C@@H]1C=CO[C@@H]1O4                  35.6
 3  CC1=CC(=Nc2ccc(N(CCCl)CCCl)cc2)C=C(C)C1=O                  49.9
 4  Cc1ccc(C(=O)O[C@H](C(=O)O)[C@H](OC(=O)c2ccc(C)cc2)C(=O)O)cc1                  96.9
 5  COc1cc(C2C3=C(CCCC3=O)N(CCO)c3cc4c(cc32)CCC4)cc(OC)c1OC (stereo unspecified)                   114
 6                           O=C/C=C/c1ccco1                  96.1
 7  C[C@]12CC[C@H]3[C@@H](CC=C4c5nc(N)sc5CC[C@@]43C)[C@@H]1CC[C@@H]2O                   103
 8                           COc1ccc(N)cc1OC                   113
 9                CC(=O)c1cccc(S(=O)(=O)F)c1                   109
10                         O=[P+](O)c1cccnc1                   103
11  C[C@]12CC[C@H]3[C@@H](CC=C4c5nc(-c6ccc(Br)cc6)sc5CC[C@@]43C)[C@@H]1CC[C@@H]2O                  95.1

====

We begin with a simple list: items and their reported growth.
Test system: SF-539 CNS
Assay: NCI-60 one-dose screen, 48 h (100 = growth as untreated, 0 = no growth, -100 = all killed)
Conditions: 10 µM unless noted
The panel holds about 83,000 compounds, 20% with a hit somewhere; the sample as a whole holds those more often.

Chemical structure	growth, %
COc1ccc(O)c2c(=O)c3c(OC)cc4c(c3oc12)[C@@H]1C=CO[C@@H]1O4	37.9
C[C@]12CCc3nc(-c4ccc(O)c(O)c4)sc3C1=CC[C@@H]1[C@@H]2CC[C@]2(C)C(=O)CC[C@@H]12	56.4
CO[C@H]1[C@H](O[C@@H]2C[C@@H]3C/C=C/C(=O)O[C@@H](CO)C[C@H](O)[C@@H]4C[C@H](C)[C@H](C/C=C\C=C\[C@H](C)C[C@H](C2)O3)O4)O[C@@H](C)[C@H](O)[C@H]1O	70.8
CCN1C(=O)CC(=O)N(CC)C1=S	96.9

====

Tested on: HOP-92 NSCLC
Experiment: NCI-60 one-dose screen, 48 h (100 = growth as untreated, 0 = no growth, -100 = all killed)
Settings: 10 µM unless noted
About 83,000 compounds went through this panel and 20% of them were active in at least one assay; those are over-represented in the sample as a whole.
Experimental endpoint: growth (%)

Molecule	Tested target	Experimental endpoint	Reported measurement
C[C@]12CCC(=O)C[C@@H]1CC[C@@H]1[C@@H]2CC[C@]2(C)[C@@H](OC(=O)N(CCCl)N=O)CC[C@@H]12	HOP-92 NSCLC	growth	-8.11
O=C(NC(Cl)=C(Cl)Cl)P(=O)(c1ccccc1)c1ccccc1	HOP-92 NSCLC	growth	97.4
O=P(O)(Nc1ccccc1)Nc1ccccc1	HOP-92 NSCLC	growth	89.1
Nc1ccc2c(c1)Cc1cc(N)ccc1-2	HOP-92 NSCLC	growth	76.5
O=C(O)c1ccc(=O)[nH]c1	HOP-92 NSCLC	growth	100
CSc1cc(/C=C(\C)[C@@H]2C[C@@H]3O[C@]3(C)CCC[C@H](C)[C@H](O)[C@@H](C)C(=O)C(C)(C)[C@@H](O)CC(=O)O2)n(CCNC(=O)OC(C)(C)C)n1	HOP-92 NSCLC	growth	70.3
CC(C)c1cccc(C(C)C)c1O	HOP-92 NSCLC	growth	100
NC1CN2CCC1CC2 (configuration not stated)	HOP-92 NSCLC	growth	77.7
COc1cc2c(cc1OC)-c1c3c(cc4c1[C@@H](C2)N(C)CC4)OCO3	HOP-92 NSCLC	growth	6.02
Cc1cc(N)ccc1N	HOP-92 NSCLC	growth	95.1
Nc1c(Cl)c(Cl)nc(C(=O)O)c1Cl	HOP-92 NSCLC	growth	106
CC1=C([Te]c2ccccc2)C(=O)c2ccccc2C1=O	HOP-92 NSCLC	growth	-53.8
O=C(NC1=NCC[Se]1)c1ccccc1O	HOP-92 NSCLC	growth	63.5
Cc1ccc(P(=O)(O)O)cc1	HOP-92 NSCLC	growth	120
C[C@]12CC[C@H]3[C@@H](CC=C4c5nc(N)sc5CC[C@@]43C)[C@@H]1CC[C@@H]2O	HOP-92 NSCLC	growth	105
Cc1nnc([S-])o1.[Au+].c1ccc([PH+](c2ccccc2)c2ccccc2)cc1	HOP-92 NSCLC	growth	-9.28
CC[PH+](CC)CC.O=COC1OC([S-])C(OC=O)C(OC=O)C1OC=O.[Au+] (configuration not stated)	HOP-92 NSCLC	growth	-86.8
CCOC(=O)c1cncn1C(C)c1ccccc1 (configuration not stated)	HOP-92 NSCLC	growth	95.8
O=CC1(c2ccccc2)CCN(Cc2ccccc2)CC1	HOP-92 NSCLC	growth	97.3
CC1OC(=O)C(C(C)C)NC(=O)C(C(C)C)OC(=O)C(C(C)C)NC(=O)C(C)OC(=O)C(C(C)C)NC(=O)C(C(C)C)OC(=O)C(C(C)C)NC(=O)C(C)OC(=O)C(C(C)C)NC(=O)C(C(C)C)OC(=O)C(C(C)C)NC1=O (configuration not stated)	HOP-92 NSCLC	growth	-38.8
CCC(=O)C(CC(C)[N+](C)(C)C)(c1ccccc1)c1ccccc1 (configuration not stated)	HOP-92 NSCLC	growth	103
CCN1C(=O)CC(=O)N(CC)C1=S	HOP-92 NSCLC	growth	92.1
